System: SK-OV-3
Experiment: Growth inhibition of human SK-OV-3 cells at 10 uM incubated for 48 hrs by sulforhodamine B assay relative to control
Assay type: functional
Details: read-out: GI
RESULT_TYPE: inhibition of growth at 10 µM (%)
Give bare numbers, in %.

In the examples that follow, each entry is paired with its recorded inhibition of growth at 10 µM.
# INPUT_SMILES, inhibition of growth at 10 µM [%]
records = [
    ("O=C(CNc1c(Cl)cccc1Cl)Nc1ccc(-c2nc3ccccc3s2)cc1", 2.25),
    ("O=C(CN1CCCCC1)Nc1ccc(-c2nc3ccccc3s2)cc1", 4.61),
    ("CN1CCN(CC(=O)Nc2ccc(-c3nc4ccccc4s3)cc2)CC1", 5.77),
    ("O=C(Cn1nnc2ccccc21)Nc1ccc(-c2nc3ccccc3s2)cc1", -4.22),
    ("O=C(Cn1cncn1)Nc1ccc(-c2nc3ccccc3s2)cc1", 0.14),
]

Record inhibition of growth at 10 µM per entry; entries follow.
1. O=C(CNc1nnc(-c2ccc(Cl)cc2)o1)Nc1ccc(-c2nc3ccccc3s2)cc1
2. O=C(CNCc1ccccc1)Nc1ccc(-c2nc3ccccc3s2)cc1
3. O=C(CN(c1ccccc1)c1ccccc1)Nc1ccc(-c2nc3ccccc3s2)cc1

[reply]
1. -16.6
2. -18.4
3. -11.4
